Reference source for all entries: paper PMC12040969

Exercise: for every item that follows, state its recorded Average of Relative viability of cells (%).
System: - MDAMB-231
assay.details: Antiproliferative assay (MTT) MDAMB-231
measurement.parameters: MDAMB-231, 6.25 µM
Report only the number, with the unit % understood.

Task: Reported Average of Relative viability of cells (%) for Cc1nc(SCC(=O)Nc2nc(-c3ccc(Cl)cc3)cs2)sc1C(=O)/C=C/c1ccccc1 [Compound 10f] : what is it?
Result: 63.2

Task: Reported Average of Relative viability of cells (%) for Cc1ccc(/C=C/C(=O)c2sc(SCC(=O)Nc3nc(-c4ccccc4)cs3)nc2C)cc1 [Compound 10d] : what is it?
Result: 60.4

Task: Reported Average of Relative viability of cells (%) for Cc1nc(SCC(=O)Nc2nc(-c3ccc(Cl)cc3)cs2)sc1C(=O)/C=C/c1ccc(F)cc1 [Compound 10h] : what is it?
Result: 68.5

Task: Reported Average of Relative viability of cells (%) for Cc1ccc(/C=C/C(=O)c2sc(SCC(=O)Nc3nccs3)nc2C)cc1 [Compound 13d] : what is it?
Result: 45.6
